assayDetails: H1N1 influenza NS1A inhibitors, functional cell based assay (AID 504329)
settings: percent inhibition, at 12.5 µM, stronger effect = higher value
The whole screen tested about 340,000 compounds, of which about 1,000 (0.29%) were called active. Not all results are given here. Entries with a potency or affinity are not part of this list.
Kindly supply the reported inhibition values for the records listed here.
API: value field is a number in %; no unit string.

In: Given the compound `CCCCN1C(=O)/C(=C2/Sc3ccc(OC)cc3N2CC)SC1=S` , what is its reported inhibition?
Out: -6.84

In: Which measured inhibition value corresponds to `CN(c1ncc(C(F)(F)F)cc1Cl)N1C(=O)c2cccc(N)c2C1=O` ?
Out: -4.28

In: inhibition for `Cc1ccc(N2C(=O)CN(Cc3ccccc3)C2=S)cc1C` ?
Out: -6.48

In: Suppose we examine the compound `Cc1cc(C)c(NC(=O)c2ccc(CN3CCc4ccccc4C3)cc2)c(C)c1` ; what inhibition value has been reported?
Out: 12.4

In: Could you share which inhibition value was measured for `O=C1CCN(S(=O)(=O)c2ccccc2)CCN1CCOCc1ccc(Cl)cc1` ?
Out: -21.7

In: Which measured inhibition value corresponds to COc1cccc2c1C(=O)c1c(O)c3c(c(O)c1C2=O)CC(O)(C(C)=O)CC3OC1CC(O)C(O)C(C)O1 (stereo not drawn) ?
Out: 20.6

In: Which inhibition is listed for `O=C(COc1ccc(Cl)cc1)N/N=C/c1cccc2cccnc12` ?
Out: 2.4

In: May I ask what inhibition has been recorded for `O=C1Nc2ccc(Br)cc2C12OCCO2` ?
Out: -14.6

In: Requested read-out: inhibition. Entry: CN1CCc2cc3c(c4c2C1CC41CCC(=NO)CC1)OCO3 (stereo not drawn)
Out: 4.88

In: Requested read-out: inhibition. Entry: `O=C(COc1ccccc1)N[C@@H]1c2ccccc2CC[C@H]1OCc1ccccc1`
Out: -3.28

In: Entry `COc1cc(C(=O)N/N=C(\c2ccccc2)c2ccccn2)cc(OC)c1OC` has what inhibition?
Out: 8.37

In: Tell me the measured inhibition of `COc1ccc(C(=O)N/N=C(\C)CC(=O)Nc2ccccn2)cc1OC` , please.
Out: 1.35

In: Which measured inhibition value corresponds to COCC(COS(N)(=O)=O)C(C)C (stereo not drawn) ?
Out: 9.46

In: Fill in the blank: the reported inhibition of `CCc1ccc(-c2cc(C)no2)cc1S(=O)(=O)Nc1cc(C)on1` is ____.
Out: 1.29

In: Consider the compound COC(=O)C1=C(C)N(CCCC(=O)O)C(=O)NC1c1ccccc1OS(=O)(=O)c1ccc([N+](=O)[O-])cc1 (stereo not drawn) and give its measured inhibition.
Out: 13.1

In: Return reported inhibition; argument: `C/C(=N\NC(=O)c1ccc(Cl)c(Cl)c1)c1cccc(NC(=O)C(C)C)c1`
Out: -0.88

In: Record request: inhibition value, item `COc1ccc(C(=O)N/N=C/c2ccc3cccc(O)c3n2)cc1`
Out: -2.2

In: Sample CCCCC(=O)OCC(=O)C1(O)Cc2c(O)c3c(c(O)c2C(OC2CC(NC(=O)C(F)(F)F)C(O)C(C)O2)C1)C(=O)c1c(OC)cccc1C3=O (stereo not drawn) — what was its inhibition?
Out: 14.4

In: Data request, read-out inhibition, for `O=C(COC(=O)c1ccc[nH]c1=O)NC1CCCCCCC1`
Out: -1.92

In: I am curious: what inhibition value has been reported for `NS(=O)(=O)c1cccc(NC(=O)COC(=O)COc2ccc3ccccc3c2)c1` ?
Out: -0.29

In: Data request, read-out inhibition, for `CC(C)(C)c1cc(C(=O)N2CCc3ccccc32)ccn1`
Out: -21.7

In: Entry `CCCNC(=O)CN(c1cccc(F)c1)S(C)(=O)=O` has what inhibition?
Out: -3.24

In: Entry `COc1ccccc1CNC(=O)Cn1cc([N+](=O)[O-])ccc1=O` has what inhibition?
Out: -14

In: Value lookup for inhibition; key = `Cc1c2cnn(CC(=O)NCCN3CCOCC3)c(=O)c2c(C)n1Cc1ccccc1`
Out: 7.12

In: Look up inhibition: `COc1cccc2c1C(=O)c1c(O)c3c(c(O)c1C2=O)C[C@](O)(C(C)=O)C[C@H]3O[C@@H]1C[C@@H](N)[C@@H](O)[C@@H](C)O1`
Out: 24.5

In: What value of measured inhibition is listed for `NC(N)=N/N=C/c1ccc(N(c2ccccc2)c2ccccc2)cc1` ?
Out: -36.1

In: Fill blank: measured inhibition of the compound CCOC(=O)C1CCCN(C(=O)COc2ccc(N(C)S(=O)(=O)c3ccc(F)cc3)cc2)C1 (stereo not drawn) is ____.
Out: -23.6

In: Which inhibition value belongs to CCC(C)(C)C1CCc2[nH]nc(C(=O)NCCCNC(=O)OC(C)(C)C)c2C1 (stereo not drawn) ?
Out: 7.94

In: inhibition for `CCN(Cc1ccccc1)c1ccccc1` ?
Out: -3.09

In: Which inhibition value is on record for `CCOc1ccc(C(=O)Nc2cccc3cccnc23)cc1` ?
Out: -4.15

In: Consider the compound `O=c1ccc(Cl)nn1-c1ccccc1` and give its measured inhibition.
Out: -0.77

In: Form field: reported inhibition of `C/C(=N\NC(=O)C(c1ccccc1)c1ccccc1)c1ccccn1`
Out: -11.5

In: Dear colleague, I am looking for the recorded inhibition of the following compound: `Cc1ccc(O)c(N=Nc2nccs2)c1`
Out: 26.6

In: Field request: inhibition | item: `COc1cc(NC(=O)c2ccccn2)cc(OC)c1OC`
Out: -8.83

In: Find the recorded inhibition belonging to `Cc1cc(=O)[nH]c(SCC(=O)Nc2ccc(C)c(S(=O)(=O)N3CCCCC3)c2)n1` and report it.
Out: 14

In: Can you share its inhibition? I mean this compound: O=C(Nc1ccc(N2CCOCC2)cc1)C1CCCCN1S(=O)(=O)c1ccccc1 (stereo not drawn)
Out: -25.6

In: Request the reported inhibition associated with `COc1cccc2c1C(=O)c1c(O)c3c(c(O)c1C2=O)C[C@@](O)(C(=O)CO)C[C@@H]3O[C@H]1C[C@H](N)[C@H](O)[C@H](C)O1`
Out: 20.3

In: Please look up its inhibition: O=S(=O)(NCC1COc2ccccc2O1)c1ccc2ccccc2c1 (stereo not drawn)
Out: 1.74

In: Name the reported inhibition value associated with the compound `C/C(=N/NC(=O)CNC(=O)c1ccccn1)c1ccc([N+](=O)[O-])cc1`
Out: -5.71

In: Would you mind telling me what inhibition value was observed for `COc1cccc(S(=O)(=O)Nc2ccc(C(=O)N3CCN(C(=O)c4ccco4)CC3)cc2)c1` ?
Out: 5.1

In: What measured inhibition goes with `COc1ccc(NC(=O)CN2CCN(CC(=O)Nc3ccc(F)cc3)CC2)c(OC)c1` ?
Out: -6.91

In: Can you look up the measured inhibition of `O=C1/C(=C/c2ccncc2)N2CCC1CC2` for me?
Out: -8.83

In: // returns reported inhibition for input `CCc1cc(=O)[nH]c(SCCc2ccccc2)n1`
Out: 1.92
